Tested on: U2OS
Method: Multiplex assay against U2OS
Type: toxicity, cell-based
Experimental Context: human, 12 h, 1 µM, compound concentration 1 uM, replicate 1
The threshold is 4%. Values of Population Mitochondria Different-Phenotype (%) beneath it are tagged T; values meeting or exceeding it are tagged F.

CCCC(CCC)C(=O)O :: F

Lookup: Confirm or reject: Population Mitochondria Different-Phenotype (%) of CNC[C@H](O)c1ccc(O)c(O)c1 [EPINEPHRINE] lies strictly below 4%
Found: T

Lookup: Dear reviewer, please state whether N[C@@]1(C(=O)O)CO[C@H]2[C@H](C(=O)O)[C@H]21 has Population Mitochondria Different-Phenotype (%) strictly beneath 4%.
Found: T

Lookup: Below 4% on Population Mitochondria Different-Phenotype (%)? Entry C[C@H](NC(=O)c1c(C(F)F)nn(C)c1Oc1cccc(C(F)(F)F)c1)c1ccc(C(=O)O)cc1
Found: T

Lookup: API: query returns whether the molecule falls strictly under 4% in Population Mitochondria Different-Phenotype (%). Query: CC1(COc2ccc3c(c2)ncn3-c2ccc3cccc(N4CCC(N)CC4)c3n2)COC1
Found: F

Lookup: Problem: For the molecule COc1ccc2c(c1)C(C(=O)N(Cc1ccc(N(C)C)cc1)c1ccc(C(C)C)cc1)CCC2.Cl (configuration not stated) , is Population Mitochondria Different-Phenotype (%) under 4%?
Found: F

Lookup: A record lists CCCn1c(=O)c2[nH]c(C3CCCC3)nc2n(CCC)c1=O . Is its Population Mitochondria Different-Phenotype (%) below 4%?
Found: T

Lookup: Hi there! Is Population Mitochondria Different-Phenotype (%) for O=C(O)c1cc2ccccc2c(Cc2c(O)c(C(=O)O)cc3ccccc23)c1O below 4%, do you know?
Found: T

Lookup: Field: below-cutoff. Rule: recorded Population Mitochondria Different-Phenotype (%) strictly less than 4%. Subject: COc1cc(NC(=O)CCN2CCC(OC(=O)Nc3ccccc3-c3ccccc3)CC2)c(Cl)cc1CNC[C@H](O)c1ccc(O)c2[nH]c(=O)ccc12
Found: F

Lookup: Strictly below 4% in Population Mitochondria Different-Phenotype (%)? CCCN1CCC[C@@H]2Cc3n[nH]cc3C[C@H]21.Cl [QUINPIROLE HYDROCHLORIDE]
Found: T

Lookup: API: query returns whether the molecule falls strictly under 4% in Population Mitochondria Different-Phenotype (%). Query: O=C1COc2nccc(-c3ccccc3F)c2CN1Cc1cc(C(F)(F)F)cc(C(F)(F)F)c1
Found: T

---

Answer each item with its documented Population Healthy Nuclei (%).
Tested on: U2OS
Method: Multiplex assay against U2OS
Type: toxicity, cell-based
Experimental Context: human, 12 h, 10 µM, compound concentration 10 uM, replicate 2
Numbers only, in %.

State recorded Population Healthy Nuclei (%) for all listed compounds.
1. Cc1ccc(/C(=C\CN2CCCC2)c2ccccn2)cc1 [TRIPROLIDINE]
2. Cc1ccc(-c2ccc(F)cc2COc2ccc(CCC(=O)O)cc2)cc1
3. Cc1ccccc1C(=O)Nc1ccc(C(=O)N2CCCC(N(C)C)c3ccccc32)cc1.Cl (centres undefined)
4. CN1CCN(c2nc3cc(C(F)(F)F)ccc3n3cccc23)CC1.O=C(O)/C=C\C(=O)O.O=C(O)/C=C\C(=O)O
5. CCCC(CCC)C(=O)O [VALPROIC ACID]
6. N#Cc1c(N)nc(SCc2csc(-c3ccc(Cl)cc3)n2)c(C#N)c1-c1ccc(OCCO)cc1 [CAPADENOSON]
7. Oc1c(CN2CCN(c3ccccn3)CC2)cc(Cl)c2cccnc12

Found:
[77, 75, 62, 68, 70, 56, 68]

Would you mind giving Population Healthy Nuclei (%) for every compound in the list below?
1. Cc1ccc(F)cc1C(=O)Nc1ccc(C(=O)N2Cc3cccn3Cc3ccccc32)c(Cl)c1 [LIXIVAPTAN]
2. COc1c(C)cc(NC(=O)c2nn(Cc3ccc(F)cc3)c3c2CN(C(=O)c2ccc[nH]2)C[C@]3(C)C(N)=O)cc1C

Found:
1: 69; 2: 66
